measured.parameter: melting point

Would you please look over these solved cases?
Exam item: For the compound shown here, Cc1c(C(=O)O)oc2ccc(S(=O)(=O)N(CCc3ccccc3)Cc3c(F)cccc3C(F)(F)F)cc12 , give the reported melting point.
Marked response: 99 to 100 °C

Exam item: Now consider Cc1ccc(F)cc1CN(CCc1ccccc1)S(=O)(=O)c1ccc2oc(C(=O)O)c(C)c2c1 .
Marked response: > 380 °C (dec.)

Exam item: // repeat for Cc1c(C(=O)O)oc2ccc(S(=O)(=O)N(CCc3ccccc3)c3ccc(N4CCN(C(=O)N(C)C)CC4)cc3)cc12 and report
Marked response: 192 to 193 °C

Exam item: Could you do the same for Cc1c(C(=O)O)oc2ccc(S(=O)(=O)N(CCc3ccccc3)Cc3ccc(C(=O)O)cc3)cc12 , please?
Marked response: 254 to 255 °C

Exam item: Can you check Cc1c(C(=O)O)oc2ccc(S(=O)(=O)N(CCc3ccccc3)Cc3ccc(-c4ccccc4C#N)cc3)cc12 next?
Marked response: 197 to 198 °C

Exam item: Follow-up item: Cc1c(C(=O)O)oc2ccc(S(=O)(=O)N(CCc3ccccc3)Cc3ccc(-c4ccccc4C(=O)OC(C)(C)C)cc3)cc12
Marked response: 197 to 198 °C

Exam item: // next record Cc1c(C(=O)O)oc2ccc(S(=O)(=O)N(CCc3ccccc3)c3ccccc3N3CCN(S(C)(=O)=O)CC3)cc12
Marked response: 144 to 145 °C

Exam item: Repeat for the following compound: Cc1c(C(=O)O)oc2ccc(S(=O)(=O)N(CCc3ccccc3)Cc3ccc(SC(F)(F)F)cc3)cc12
Marked response: 165 to 166 °C

List the reported melting point of each compound below.
1. Cc1c(C(=O)O)oc2ccc(S(=O)(=O)N(CCc3ccccc3)c3ccccc3N3CCN(C(=O)N(C)C)CC3)cc12
2. Cc1c(C(=O)O)oc2ccc(S(=O)(=O)N(CCc3ccccc3)Cc3ccc(F)cc3F)cc12
3. Cc1c(C(=O)O)oc2ccc(S(=O)(=O)N(CCc3ccccc3)Cc3cccc(N4CCN(C(=O)OC(C)(C)C)CC4)c3)cc12
4. Cc1c(C(=O)O)oc2ccc(S(=O)(=O)N(CCc3ccccc3)Cc3ccc(Br)cc3C(F)(F)F)cc12

Marked response:
> 380 °C (dec.)
155 to 156 °C
104 to 105 °C
150 to 151 °C

Exam item: Given the compound Cc1c(C(=O)O)oc2ccc(S(=O)(=O)N(CCc3ccccc3)Cc3ccc4ccccc4c3)cc12 , what is its reported melting point?
Marked response: > 380 °C (dec.)

* * *

I'd appreciate it if you could supply IC50 values for the items below.
Target: FXR (Homo sapiens)
Construct: 5 μL of 20 nM FXR-LBD Complete Coregulator buffer G; purchased ThermoFisher PV4833
Sequence (Q96RI1 262-486 limits assumed): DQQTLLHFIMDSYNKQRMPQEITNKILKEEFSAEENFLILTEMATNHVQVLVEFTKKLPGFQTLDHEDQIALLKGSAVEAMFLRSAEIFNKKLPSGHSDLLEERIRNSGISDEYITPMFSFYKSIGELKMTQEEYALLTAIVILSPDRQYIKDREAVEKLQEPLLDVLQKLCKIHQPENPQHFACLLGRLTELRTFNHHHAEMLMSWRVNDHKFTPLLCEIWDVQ
Test: FXR antagonist screening by TR-FRET (LanthaScreen TR-FRET FXR co-activation assay kit)
Format: biochemical
Conditions: Table 1.1, FXR antagonistic activity; TR-FRET with CDCA; geometric means of at least two independent runs

Exam item: What value of measured IC50 is listed for CCOC(=O)c1oc2ccc(S(=O)(=O)N(CCc3ccccc3)Cc3cccc(N4CCN(C(=O)OC(C)(C)C)CC4)c3)cc2c1C ?
Marked response: 50 to 100 µM

Exam item: Please answer likewise for Cc1c(C(=O)O)oc2ccc(S(=O)(=O)N(CCc3ccccc3)Cc3ccccc3N3CC[N+](C)(C)CC3)cc12
Marked response: 50 to 100 µM

Exam item: Could you do the same for Cc1c(C(=O)O)oc2ccc(S(=O)(=O)N(CCc3ccccc3)c3ccc(C4CCN(C(=O)OC(C)(C)C)CC4)cc3)cc12 , please?
Marked response: 0.1 to 10 µM

Here's the next entry for you.
Exam item: So what does the record say about IC50 for Cc1c(C(=O)O)oc2ccc(S(=O)(=O)N(CCc3ccccc3)Cc3c(F)cccc3Cl)cc12 ?
Marked response: 0.1 to 10 µM

The values you see were collected from patent US20240239775A1.
